The reported measurements were obtained from patent US20190365892A1.

Target Of Assay: T1, α4β1 (UniProt P13612 34-970; P05556 21-728)
T1 construct: The preparation is not described; also called VLA-4; alpha4beta1 integrin
Assay Name: competition ELISA; α4β1 preincubated with test mAb, competitor murine HP1/2
Recorded pIC50 by entry
Keep it numeric: pIC50 is minus log10 of the concentration in mol/L.

binder="Chimeric HP1/2 (antibody, V domains shown, also called chimerized HP1/2 antibody; chimeric mAb) VH: EVQLQQSGAELVKPGASVKLSCTASGFNIKDTYMHWVKQRPEQGLEWIGRIDPASGDTKYDPKFQVKATITADTSSNTAWLQLSSLTSEDTAVYYCADGMWVSTGYALDFWGQGTTVTVSS VL: SIVMTQTPKFLLVSAGDRVTITCKASQSVTNDVAWYQQKPGQSPKLLIYYASNRYTGVPDRFTGSGYGTDFTFTISTVQAEDLAVYFCQQDYSSPYTFGGGTKLEIK" endpoint=pIC50 recorded_number=8.97
binder="H1L0 (antibody, V domains shown) VH: EVQLVQSGAEVKKPGATVKISCKASGFNIKDTYMHWVQQAPGKGLEWMGRIDPASGDTKYDPKFQVRVTITADTSTDTAYMELSSLRSEDTAVYYCADGMWVSTGYALDFWGQGTLVTVSS VL: DIVMTQSPDSLAVSLGERATINCKASQSVTNDVAWYQQKPGQPPKLLIYYASNRYTGVPDRFSGSGSGTDFTLTISSLQAEDVAVYYCQQDYSSPYTFGQGTKVEIK" endpoint=pIC50 recorded_number=8.73
binder="H1L3 (antibody, V domains shown) VH: EVQLVQSGAEVKKPGATVKISCKASGFNIKDTYMHWVQQAPGKGLEWMGRIDPASGDTKYDPKFQVRVTITADTSTDTAYMELSSLRSEDTAVYYCADGMWVSTGYALDFWGQGTLVTVSS VL: SIVMTQSPDSLAVSLGERATINCKASQSVTNDVAWYQQKPGQPPKLLIYYASNRYTGVPDRFSGSGYGTDFTFTISSLQAEDVATYFCQQDYSSPYTFGQGTKVEIK" endpoint=pIC50 recorded_number=9.31

Could you now look at the following binder, please?
Form: binder = H1L2 (antibody, V domains shown) VH: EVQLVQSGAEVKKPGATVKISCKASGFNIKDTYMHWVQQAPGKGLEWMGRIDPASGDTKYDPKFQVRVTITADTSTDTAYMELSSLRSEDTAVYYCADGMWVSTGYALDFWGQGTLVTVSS VL: SIVMTQSPDSLAVSLGERATINCKASQSVTNDVAWYQQKPGQPPKLLIYYASNRYTGVPDRFSGSGYGTDFTLTISSLQAEDVAVYFCQQDYSSPYTFGQGTKVEIK ; pIC50 = 9.05
